Hello, the source for this data is patent US11214565B2, in case you need it.

Kindly supply the reported IC50 values for the records listed here.
Biological target: LRRK2 G2019S enzyme (Homo sapiens (Human), UniProt Q5S007, G2019S)
Sequence (Q5S007 whole entry G2019S): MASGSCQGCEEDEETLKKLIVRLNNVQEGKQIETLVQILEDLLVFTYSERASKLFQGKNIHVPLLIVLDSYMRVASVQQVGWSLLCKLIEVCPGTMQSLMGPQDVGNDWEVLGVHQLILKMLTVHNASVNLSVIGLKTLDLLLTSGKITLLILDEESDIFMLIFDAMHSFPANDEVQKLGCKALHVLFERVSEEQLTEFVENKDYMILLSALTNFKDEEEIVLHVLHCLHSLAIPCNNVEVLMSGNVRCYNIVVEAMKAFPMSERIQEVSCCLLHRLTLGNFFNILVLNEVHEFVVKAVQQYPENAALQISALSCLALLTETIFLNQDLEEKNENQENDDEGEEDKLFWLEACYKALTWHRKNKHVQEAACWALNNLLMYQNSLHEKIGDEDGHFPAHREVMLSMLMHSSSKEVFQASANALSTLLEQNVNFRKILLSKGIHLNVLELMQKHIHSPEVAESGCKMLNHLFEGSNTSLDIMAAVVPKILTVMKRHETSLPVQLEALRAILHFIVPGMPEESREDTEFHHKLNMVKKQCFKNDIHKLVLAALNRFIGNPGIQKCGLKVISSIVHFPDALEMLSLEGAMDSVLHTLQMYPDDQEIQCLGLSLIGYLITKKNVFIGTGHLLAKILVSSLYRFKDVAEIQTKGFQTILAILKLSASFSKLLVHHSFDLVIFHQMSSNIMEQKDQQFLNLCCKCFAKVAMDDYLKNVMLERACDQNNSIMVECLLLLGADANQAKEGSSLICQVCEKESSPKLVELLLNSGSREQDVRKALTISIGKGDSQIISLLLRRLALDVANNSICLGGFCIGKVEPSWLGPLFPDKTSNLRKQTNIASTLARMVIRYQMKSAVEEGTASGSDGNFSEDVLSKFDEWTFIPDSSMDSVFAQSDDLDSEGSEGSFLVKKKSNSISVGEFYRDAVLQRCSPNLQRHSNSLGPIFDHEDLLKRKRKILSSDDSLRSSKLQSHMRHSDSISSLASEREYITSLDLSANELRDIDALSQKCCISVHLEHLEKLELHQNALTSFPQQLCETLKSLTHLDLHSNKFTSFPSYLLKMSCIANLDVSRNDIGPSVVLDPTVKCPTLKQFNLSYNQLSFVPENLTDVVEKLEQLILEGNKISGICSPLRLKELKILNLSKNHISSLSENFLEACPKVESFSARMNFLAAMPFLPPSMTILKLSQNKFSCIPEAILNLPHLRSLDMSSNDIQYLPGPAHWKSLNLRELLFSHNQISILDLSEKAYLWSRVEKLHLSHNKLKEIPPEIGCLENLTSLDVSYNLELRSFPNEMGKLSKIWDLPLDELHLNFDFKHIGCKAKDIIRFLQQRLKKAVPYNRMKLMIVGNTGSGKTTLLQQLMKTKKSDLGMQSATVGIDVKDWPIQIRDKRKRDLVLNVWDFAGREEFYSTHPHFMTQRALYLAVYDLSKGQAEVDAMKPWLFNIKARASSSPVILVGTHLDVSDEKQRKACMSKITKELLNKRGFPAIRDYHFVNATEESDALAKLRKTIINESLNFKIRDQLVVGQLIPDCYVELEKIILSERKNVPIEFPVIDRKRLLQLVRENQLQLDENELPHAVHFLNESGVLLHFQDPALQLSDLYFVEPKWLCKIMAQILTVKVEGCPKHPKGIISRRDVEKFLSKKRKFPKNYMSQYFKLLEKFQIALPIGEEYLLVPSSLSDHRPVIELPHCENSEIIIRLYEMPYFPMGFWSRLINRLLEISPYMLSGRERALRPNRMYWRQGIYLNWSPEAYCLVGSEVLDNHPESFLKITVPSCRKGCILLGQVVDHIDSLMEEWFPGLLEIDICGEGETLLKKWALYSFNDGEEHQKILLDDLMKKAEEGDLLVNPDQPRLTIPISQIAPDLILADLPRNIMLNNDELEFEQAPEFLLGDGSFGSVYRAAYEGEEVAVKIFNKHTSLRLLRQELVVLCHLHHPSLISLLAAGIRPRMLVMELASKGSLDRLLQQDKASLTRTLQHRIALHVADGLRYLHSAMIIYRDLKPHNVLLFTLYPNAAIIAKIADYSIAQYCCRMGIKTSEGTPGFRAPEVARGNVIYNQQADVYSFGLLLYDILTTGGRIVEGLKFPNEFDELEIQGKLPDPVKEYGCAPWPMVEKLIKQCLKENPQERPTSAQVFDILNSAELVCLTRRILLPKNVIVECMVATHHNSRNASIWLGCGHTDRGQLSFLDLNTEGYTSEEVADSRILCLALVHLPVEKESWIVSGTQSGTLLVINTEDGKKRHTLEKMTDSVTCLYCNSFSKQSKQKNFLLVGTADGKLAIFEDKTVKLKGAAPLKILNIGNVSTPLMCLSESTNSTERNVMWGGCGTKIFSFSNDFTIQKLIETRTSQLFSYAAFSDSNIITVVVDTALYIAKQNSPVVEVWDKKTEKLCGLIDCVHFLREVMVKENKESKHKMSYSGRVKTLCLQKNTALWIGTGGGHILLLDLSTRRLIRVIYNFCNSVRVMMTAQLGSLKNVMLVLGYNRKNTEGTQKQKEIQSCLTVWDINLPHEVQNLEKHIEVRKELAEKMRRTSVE
Assay: LRRK2 G2019S TR-FRET biochemical kinase assay (LRRKtide substrate)
Conditions: Table D-4; 5 nM LRRK2, 134 μM ATP, 60 minute reaction, 23° C.
Method: LRRK2 G2019S enzyme, Substrate (LRRKtide), ATP, TR-FRET dilution buffer, pLRRKtide antibody, 384-well assay plate, and DMSO. […] To perform the detection of the reaction, EDTA completely mixed in TR-FRET dilution buffer was added to antibody reagent. […] Plates were read on Perkin Elmer Envision 2104 instrument in TR-FRET mode using a 340 nm excitation filter, 520 nm fluorescence emission filter, and 490 or 495 nm terbium emission filter. […]

Solved entries:
{"COMPOUND": "CCNc1nc(Nc2cnn([C@H]3CCn4ccnc43)c2C)ncc1C(F)(F)F", "TEST SYSTEM": "LRRK2 G2019S enzyme (Homo sapiens (Human), UniProt Q5S007, G2019S)", "IC50": "< 30 nM"}
{"COMPOUND": "CCNc1nc(Nc2cn(CCOC(F)F)nc2C)ncc1C(F)(F)F", "TEST SYSTEM": "LRRK2 G2019S enzyme (Homo sapiens (Human), UniProt Q5S007, G2019S)", "IC50": "< 30 nM"}
{"COMPOUND": "CCNc1nc(Nc2cn(C3CCn4ccnc43)nc2C)ncc1C(F)(F)F (single isomer, unassigned) [Compound D-23]", "TEST SYSTEM": "LRRK2 G2019S enzyme (Homo sapiens (Human), UniProt Q5S007, G2019S)", "IC50": "> 60 nM"}

Here is the next item to consider.
Request: Query for LRRK2 G2019S enzyme (Homo sapiens (Human), UniProt Q5S007, G2019S): what IC50 does the record show for CCNc1nc(Nc2cnn(C3CCn4ccnc43)c2Cl)ncc1C(F)(F)F (stereo not shown) ?
Response: < 30 nM

----------
I'd appreciate it if you could supply pIC50 values for the items below.
Target: LRRK2 G2019S enzyme (Homo sapiens (Human), UniProt Q5S007, G2019S)
Assay: LRRK2 G2019S TR-FRET biochemical kinase assay (LRRKtide substrate)
Conditions: Table D-4; 5 nM LRRK2, 134 μM ATP, 60 minute reaction, 23° C.
Protocol: LRRK2 G2019S enzyme, Substrate (LRRKtide), ATP, TR-FRET dilution buffer, pLRRKtide antibody, 384-well assay plate, and DMSO. […] To perform the detection of the reaction, EDTA completely mixed in TR-FRET dilution buffer was added to antibody reagent. […] Plates were read on Perkin Elmer Envision 2104 instrument in TR-FRET mode using a 340 nm excitation filter, 520 nm fluorescence emission filter, and 490 or 495 nm terbium emission filter. […]
pIC50: −log10 of the molar value.

{"COMPOUND": "CNc1nc(Nc2cnn(CCOC(F)F)c2Cl)ncc1C(F)(F)F", "pIC50": "> 7.52"}
{"COMPOUND": "CCNc1nc(Nc2cnn(C(C)COC(F)F)c2C)ncc1C(F)(F)F (centres unmarked)", "pIC50": "> 7.52"}
{"COMPOUND": "COc1nc(Nc2cn(C3CCn4ccnc43)nc2C)ncc1C(F)(F)F (centres unmarked)", "pIC50": "> 7.52"}

Please state pIC50 for every compound in the list that follows.
1. CNc1nc(Nc2cnn([C@](C)(C#N)CF)c2C)ncc1C(F)(F)F
2. CCNc1nc(Nc2cn([C@H]3C[C@@H](c4cocn4)C3)nc2C)ncc1C(F)(F)F

Response:
1: > 7.52; 2: > 7.52

Go through the items and report each one's pIC50.
1. CNc1nc(Nc2cn(CC(C)OC(F)F)nc2C)ncc1C(F)(F)F (centres unmarked)
2. CNc1nc(Nc2cnn(C3CCCn4ccnc43)c2C)ncc1C(F)(F)F (centres unmarked)
3. CNc1nc(Nc2cn([C@H]3C[C@@H](S(C)(=O)=O)C3)nc2C)ncc1C(F)(F)F
4. CCNc1nc(Nc2cnn([C@H]3C[C@@H](n4ccnn4)C3)c2C)ncc1C(F)(F)F
5. CNc1nc(Nc2cnn(C3CCc4nnc(C)n4C3)c2C)ncc1C(F)(F)F (centres unmarked)
6. COc1nc(Nc2cn(C3(C)CCn4ccnc43)nc2C)ncc1Br (centres unmarked)

Response:
< 7.22
< 7.22
> 7.52
> 7.52
> 7.52
> 7.52

List reported pIC50 for each of these compounds:
1. Cc1c(Nc2ncc(C(F)(F)F)c(NC3CC3)n2)cnn1[C@H]1C[C@H](n2cccn2)C1
2. COc1nc(Nc2cnn([C@H]3CCn4ccnc43)c2C)ncc1C(F)(F)F
3. CNc1nc(Nc2cnn([C@H]3C[C@H](n4cccn4)C3)c2C)ncc1C(F)(F)F
4. CCNc1nc(Nc2cnn([C@H]3C[C@H](n4ccnn4)C3)c2C)ncc1C(F)(F)F
5. CCSc1nc(Nc2cn(C(C)(C)C#N)nc2C)ncc1C#N
6. CNc1nc(Nc2cnn([C@@](C)(C#N)CF)c2C)ncc1C(F)(F)F

Response:
["> 7.52", "< 7.22", "> 7.52", "> 7.52", "< 7.22", "> 7.52"]
